Tested On: PAK4 (human) (UniProt O96013)
Sequence (O96013 whole entry, looked up): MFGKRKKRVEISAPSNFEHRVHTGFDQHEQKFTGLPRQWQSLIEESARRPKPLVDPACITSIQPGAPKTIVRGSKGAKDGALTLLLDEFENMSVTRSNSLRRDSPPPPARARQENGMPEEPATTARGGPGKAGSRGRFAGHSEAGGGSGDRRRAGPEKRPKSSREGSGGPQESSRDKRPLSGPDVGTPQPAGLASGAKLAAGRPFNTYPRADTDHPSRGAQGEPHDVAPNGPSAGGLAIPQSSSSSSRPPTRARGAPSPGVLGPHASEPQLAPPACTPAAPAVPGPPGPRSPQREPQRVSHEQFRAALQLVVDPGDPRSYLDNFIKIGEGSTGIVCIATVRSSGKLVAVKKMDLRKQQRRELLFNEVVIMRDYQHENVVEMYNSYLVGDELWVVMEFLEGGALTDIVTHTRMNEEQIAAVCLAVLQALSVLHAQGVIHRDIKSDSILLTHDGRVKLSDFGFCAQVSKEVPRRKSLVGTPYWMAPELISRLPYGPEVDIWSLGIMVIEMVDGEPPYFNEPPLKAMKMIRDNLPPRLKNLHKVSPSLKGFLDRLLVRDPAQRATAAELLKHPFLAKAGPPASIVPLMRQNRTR
Experimental Details: KINOMEscan competition binding
Condition Context: compound 10.0 µM
Experimental Endpoint: kinase still bound, per cent of control (%)
The reply should be a number in %, with the unit left off.

Sample answers from the record:
| Compound | Units Text | kinase still bound, per cent of control |
| --- | --- | --- |
| Cc1ccc(C(=O)Nc2cccc(C(F)(F)F)c2)cc1Nc1cncc(C(N)=O)c1 | % | 100 |
| OCCCNc1cc(-c2ccnc(Nc3cccc(Cl)c3)n2)ccn1 | % | 100 |
| O=C(NOC[C@H](O)CO)c1ccc(F)c(F)c1Nc1ccc(I)cc1F | % | 100 |
| Nc1ccc(-c2ccc3ncc4ccc(=O)n(-c5cccc(C(F)(F)F)c5)c4c3c2)cn1 | % | 100 |
| CCCS(=O)(=O)Nc1ccc(F)c(C(=O)c2c[nH]c3ncc(-c4ccc(Cl)cc4)cc23)c1F | % | 86 |
| O=C(NC1CC1)c1cccc(-c2ccc3c(NC(=O)C4CC4)n[nH]c3c2)c1 | % | 79 |

**Query** What does the data say about its kinase still bound, per cent of control? Entry: `Cn1c(=O)n(-c2ccc(C(C)(C)C#N)cc2)c2c3cc(-c4cnc5ccccc5c4)ccc3ncc21`
**Result** 100

**Query** Another compound to check: `CC[C@@H]1C(=O)N(C)c2cnc(Nc3ccc(C(=O)NC4CCN(C)CC4)cc3OC)nc2N1C1CCCC1`
**Result** 100

**Query** How about this compound: `CCN1CCN(Cc2ccc(Nc3ncc4c(n3)N(C)c3ccccc3C(=O)N4C)cc2C(F)(F)F)CC1`
**Result** 80

**Query** Moving on to `C=CC(=O)Nc1cccc(Oc2nc(Nc3ccc(N4CCN(C)CC4)cc3OC)ncc2Cl)c1`
**Result** 100

**Query** Quick one: `COc1cc(N2CCN(C)CC2)ccc1Nc1nc(N)c(C(=O)c2c(Cl)cccc2Cl)s1`
**Result** 100

**Query** Item: `N#Cc1c(NC(=O)c2cccc3ccccc23)sc2c1CCCC2`
**Result** 100

**Query** Ok, now COc1cc(C(=O)NC2CCN(C)CC2)ccc1Nc1ncc2c(n1)N(C1CCCC1)C(C)CC(=O)N2C (stereo not drawn)
**Result** 100

----------
# reported kinase still bound, per cent of control; entries follow
Tested On: NUAK2 (human) (UniProt Q9H093)
Sequence (Q9H093 whole entry, looked up): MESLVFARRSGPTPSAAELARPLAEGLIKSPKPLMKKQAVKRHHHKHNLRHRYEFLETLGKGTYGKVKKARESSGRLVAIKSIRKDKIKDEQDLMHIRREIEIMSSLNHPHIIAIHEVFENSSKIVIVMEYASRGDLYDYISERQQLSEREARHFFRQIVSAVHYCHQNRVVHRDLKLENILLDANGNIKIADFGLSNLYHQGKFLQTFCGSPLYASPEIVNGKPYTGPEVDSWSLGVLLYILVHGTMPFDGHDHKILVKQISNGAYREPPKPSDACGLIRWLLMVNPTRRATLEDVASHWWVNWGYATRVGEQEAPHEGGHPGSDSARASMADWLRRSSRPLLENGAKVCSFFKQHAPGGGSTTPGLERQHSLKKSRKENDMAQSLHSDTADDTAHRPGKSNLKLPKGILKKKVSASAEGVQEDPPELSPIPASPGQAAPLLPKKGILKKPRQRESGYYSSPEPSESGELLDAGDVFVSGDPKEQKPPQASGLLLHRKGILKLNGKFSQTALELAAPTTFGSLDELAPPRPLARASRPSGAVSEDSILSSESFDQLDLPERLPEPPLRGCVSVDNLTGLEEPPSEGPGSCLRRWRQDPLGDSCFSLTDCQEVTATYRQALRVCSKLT
Experimental Details: KINOMEscan competition binding
Condition Context: compound 10.0 µM
State the answer as a number, implicitly in %.

| Compound Structure String | Tested On | Units Text | kinase still bound, per cent of control |
| --- | --- | --- | --- |
| CCOc1cc2ncc(C#N)c(Nc3ccc(OCc4ccccn4)c(Cl)c3)c2cc1NC(=O)/C=C/CN(C)C | NUAK2 (human) (UniProt Q9H093) | % | 8.8 |
| C=CC(=O)Nc1cc(NC(=O)c2ccc(C)c(NC(=O)c3ccno3)c2)cc(C(F)(F)F)c1 | NUAK2 (human) (UniProt Q9H093) | % | 97 |

We next turn to a different molecule, shown below.
**Query** Please tell me: kinase still bound, per cent of control of `CCN1CCN(Cc2ccc(Nc3ncc4c(n3)N(C)c3ccccc3C(=O)N4C)cc2C(F)(F)F)CC1` , system NUAK2 (human) (UniProt Q9H093)?
**Result** 6.6

----------
Test system: PIK3CA (human), P42336 [I800L]
Sequence (P42336 whole entry I800L, looked up): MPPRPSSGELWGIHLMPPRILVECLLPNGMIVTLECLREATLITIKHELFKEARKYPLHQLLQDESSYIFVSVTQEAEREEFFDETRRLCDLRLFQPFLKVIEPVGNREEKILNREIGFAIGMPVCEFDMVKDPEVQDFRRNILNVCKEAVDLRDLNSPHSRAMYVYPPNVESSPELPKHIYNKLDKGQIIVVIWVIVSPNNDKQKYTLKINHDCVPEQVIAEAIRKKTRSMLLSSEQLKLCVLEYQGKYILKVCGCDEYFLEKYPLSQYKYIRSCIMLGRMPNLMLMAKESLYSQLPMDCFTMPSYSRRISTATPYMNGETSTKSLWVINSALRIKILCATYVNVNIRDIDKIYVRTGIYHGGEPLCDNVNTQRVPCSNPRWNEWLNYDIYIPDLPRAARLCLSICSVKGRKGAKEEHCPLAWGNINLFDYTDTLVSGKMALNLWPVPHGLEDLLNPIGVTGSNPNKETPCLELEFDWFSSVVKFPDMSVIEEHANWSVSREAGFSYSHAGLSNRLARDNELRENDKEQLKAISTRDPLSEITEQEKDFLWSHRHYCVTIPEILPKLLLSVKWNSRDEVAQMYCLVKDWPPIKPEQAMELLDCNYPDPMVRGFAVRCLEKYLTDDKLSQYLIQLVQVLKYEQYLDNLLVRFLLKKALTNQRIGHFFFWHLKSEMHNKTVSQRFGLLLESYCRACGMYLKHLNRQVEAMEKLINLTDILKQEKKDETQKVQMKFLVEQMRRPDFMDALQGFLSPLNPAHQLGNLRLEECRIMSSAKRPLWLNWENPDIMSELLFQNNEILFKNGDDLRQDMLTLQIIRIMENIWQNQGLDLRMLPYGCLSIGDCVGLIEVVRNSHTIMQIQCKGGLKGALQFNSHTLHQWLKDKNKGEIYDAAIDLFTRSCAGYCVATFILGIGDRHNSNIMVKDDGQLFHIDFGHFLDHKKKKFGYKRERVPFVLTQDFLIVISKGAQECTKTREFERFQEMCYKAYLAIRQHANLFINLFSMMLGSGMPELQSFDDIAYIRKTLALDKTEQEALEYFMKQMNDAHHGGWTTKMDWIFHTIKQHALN
Experimental Details: KINOMEscan competition binding
Condition Context: compound 10.0 µM
Experimental Endpoint: kinase still bound, per cent of control (%)
Report as a plain number; the unit % is understood.

| Compound Structure String | Units Text | Readout Number |
| --- | --- | --- |
| CNC(=O)Nc1ccc(-c2nc(N3CC4CCC(C3)O4)c3cnn(C4CCC5(CC4)OCCO5)c3n2)cc1 | % | 5 |

**Query** Requested field: kinase still bound, per cent of control. Item: `O=C(NOC[C@H](O)CO)c1ccc(F)c(F)c1Nc1ccc(I)cc1F`
**Result** 33

**Query** Param item: `COc1cc2ncn(-c3cc(OCc4ccccc4C(F)(F)F)c(C(N)=O)s3)c2cc1OC`
**Result** 24

**Query** What about this molecule? `COc1cc2c(Nc3ccc(NC(=O)c4ccccc4)cc3)ncnc2cc1OCCCN1CCOCC1`
**Result** 100

**Query** Next molecule up: `CN(C)C/C=C/C(=O)Nc1cccc(Nc2ncc3c(n2)N(C)c2ccccc2C(=O)N3C)c1`
**Result** 55

----------
Tested On: SIK1 (human) (UniProt P57059)
Sequence (P57059 whole entry, looked up): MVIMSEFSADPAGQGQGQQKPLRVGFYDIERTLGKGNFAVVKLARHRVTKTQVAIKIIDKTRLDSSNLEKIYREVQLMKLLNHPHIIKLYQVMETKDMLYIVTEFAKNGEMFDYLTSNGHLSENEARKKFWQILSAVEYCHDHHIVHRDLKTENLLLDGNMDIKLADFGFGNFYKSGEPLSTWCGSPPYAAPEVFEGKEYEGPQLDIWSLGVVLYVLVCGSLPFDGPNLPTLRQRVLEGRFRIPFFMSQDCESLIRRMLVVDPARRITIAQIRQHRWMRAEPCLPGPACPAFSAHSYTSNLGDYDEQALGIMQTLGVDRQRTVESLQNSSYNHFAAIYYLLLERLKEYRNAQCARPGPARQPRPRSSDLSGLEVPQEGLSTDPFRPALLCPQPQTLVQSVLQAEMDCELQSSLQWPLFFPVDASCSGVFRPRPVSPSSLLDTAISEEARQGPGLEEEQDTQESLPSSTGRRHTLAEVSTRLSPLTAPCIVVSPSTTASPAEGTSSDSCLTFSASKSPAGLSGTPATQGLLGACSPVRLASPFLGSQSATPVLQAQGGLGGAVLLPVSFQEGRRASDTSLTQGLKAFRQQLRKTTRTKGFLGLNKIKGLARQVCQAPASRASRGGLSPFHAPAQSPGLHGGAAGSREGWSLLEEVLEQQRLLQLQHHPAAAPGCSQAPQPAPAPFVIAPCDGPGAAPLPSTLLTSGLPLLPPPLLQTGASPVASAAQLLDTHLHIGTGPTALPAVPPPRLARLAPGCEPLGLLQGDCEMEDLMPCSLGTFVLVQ
Experimental Details: KINOMEscan competition binding
Condition Context: compound 10.0 µM
Experimental Endpoint: kinase still bound, per cent of control (%)
Record the value in %, omitting the unit from your answer.

// worked examples, kinase still bound, per cent of control included
| Compound Structure String | Units Text | kinase still bound, per cent of control |
| --- | --- | --- |
| Nc1ccc(-c2ccc3ncc4ccc(=O)n(-c5cccc(C(F)(F)F)c5)c4c3c2)cn1 | % | 79 |
| O=C1Nc2ccc(I)cc2/C1=C/c1cc(Br)c(O)c(Br)c1 | % | 83 |
| C[C@@H](Oc1cc(-n2cnc3ccc(CN4CCN(C)CC4)cc32)sc1C(N)=O)c1ccccc1C(F)(F)F | % | 78 |
| Cc1ccc2nc(NCCN)c3ncc(C)n3c2c1 | % | 100 |
| CN(C)C/C=C/C(=O)Nc1cccc(Nc2ncc3c(n2)N(C)c2ccccc2C(=O)N3C)c1 | % | 2.7 |
| CCN1CCN(Cc2ccc(Nc3ncc4c(n3)N(C)c3ccccc3C(=O)N4C)cc2C(F)(F)F)CC1 | % | 27 |
| Cc1ccc(C(=O)Nc2cccc(C(F)(F)F)c2)cc1Nc1cncc(C(N)=O)c1 | % | 100 |
| Cc1cc([C@@H](C)Nc2ccccc2C(=O)O)c2nc(N3CCOCC3)cc(=O)n2c1 | % | 100 |
| OCCCNc1cc(-c2ccnc(Nc3cccc(Cl)c3)n2)ccn1 | % | 100 |

**Query** Which kinase still bound, per cent of control value is on record for `C=CC(=O)Nc1cc(NC(=O)c2ccc(C)c(NC(=O)c3ccno3)c2)cc(C(F)(F)F)c1` ?
**Result** 97

----------
Tested On: PIM2 (human)
Experimental Details: KINOMEscan competition binding
Condition Context: compound 10.0 µM
// reported kinase still bound, per cent of control for each item listed
Answer with a number only, understood to be in %.

**Query** State its kinase still bound, per cent of control on PIM2 (human): `C[C@@H](Oc1cc(-n2cnc3ccc(CN4CCN(C)CC4)cc32)sc1C(N)=O)c1ccccc1C(F)(F)F`
**Result** 77

**Query** Repeat for the following compound: `C=CC(=O)Nc1cccc(Nc2nc(N[C@H]3CC[C@H](N(C)C)CC3)nc3c2ncn3C(C)C)c1`
**Result** 100

**Query** // next record `CC[C@@H]1C(=O)N(C)c2cnc(Nc3ccc(C(=O)NC4CCN(C)CC4)cc3OC)nc2N1C1CCCC1`
**Result** 100

**Query** Please do the same for `C=CC(=O)Nc1cccc(Oc2nc(Nc3ccc(N4CCN(C)CC4)cc3OC)ncc2Cl)c1` as well.
**Result** 100

**Query** Follow-up entry: `Cc1ccc(NC(=O)c2cccc(C(C)(C)C#N)c2)cc1Nc1ccc2ncn(C)c(=O)c2c1`
**Result** 100

**Query** Also check `CCC(=O)N1CCN(c2ccc(-n3c(=O)ccc4cnc5ccc(-c6cnc7ccccc7c6)cc5c43)cc2C(F)(F)F)CC1`
**Result** 62

----------
Tested On: PRKCQ (human) (UniProt Q04759)
Sequence (Q04759 whole entry, looked up): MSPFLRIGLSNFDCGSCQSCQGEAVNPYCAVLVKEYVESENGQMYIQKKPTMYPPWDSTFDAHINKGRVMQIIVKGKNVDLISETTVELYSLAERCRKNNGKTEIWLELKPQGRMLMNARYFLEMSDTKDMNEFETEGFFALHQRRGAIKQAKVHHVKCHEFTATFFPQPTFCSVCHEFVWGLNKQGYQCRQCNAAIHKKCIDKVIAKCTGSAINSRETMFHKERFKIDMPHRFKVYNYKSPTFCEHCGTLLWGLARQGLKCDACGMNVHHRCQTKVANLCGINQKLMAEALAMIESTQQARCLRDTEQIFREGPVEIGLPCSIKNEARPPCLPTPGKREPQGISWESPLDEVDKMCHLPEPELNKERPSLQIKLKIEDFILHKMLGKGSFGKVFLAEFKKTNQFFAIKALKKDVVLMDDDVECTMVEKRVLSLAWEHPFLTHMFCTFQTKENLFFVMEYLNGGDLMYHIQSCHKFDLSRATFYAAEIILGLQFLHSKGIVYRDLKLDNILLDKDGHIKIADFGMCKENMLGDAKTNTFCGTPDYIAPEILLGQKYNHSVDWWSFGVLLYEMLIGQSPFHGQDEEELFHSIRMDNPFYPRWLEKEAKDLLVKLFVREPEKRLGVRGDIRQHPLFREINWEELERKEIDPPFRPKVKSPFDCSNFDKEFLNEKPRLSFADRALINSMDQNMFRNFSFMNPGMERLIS
Experimental Details: KINOMEscan competition binding
Condition Context: compound 10.0 µM
kinase still bound, per cent of control by entry:
The reply should contain only the number, in %.

| Molecule | kinase still bound, per cent of control [%] |
| --- | --- |
| O=C(NOC[C@H](O)CO)c1ccc(F)c(F)c1Nc1ccc(I)cc1F | 100 |

**Query** Which kinase still bound, per cent of control reading was recorded for the molecule COc1cc(C(=O)NC2CCN(C)CC2)ccc1Nc1ncc2c(n1)N(C1CCCC1)C(C)CC(=O)N2C (stereo not given) ?
**Result** 100

**Query** `Cn1c(=O)n(-c2ccc(C(C)(C)C#N)cc2)c2c3cc(-c4cnc5ccccc5c4)ccc3ncc21` , same question.
**Result** 100

**Query** How about this molecule: `Cc1cc([C@@H](C)Nc2ccccc2C(=O)O)c2nc(N3CCOCC3)cc(=O)n2c1`
**Result** 97

**Query** For `Nc1ccc(-c2ccc3ncc4ccc(=O)n(-c5cccc(C(F)(F)F)c5)c4c3c2)cn1` then?
**Result** 100

**Query** Likewise for `O=C(O)c1ccc(Nc2ncc3c(n2)-c2ccc(Cl)cc2C(c2c(F)cccc2F)=NC3)cc1` ?
**Result** 98

**Query** Another molecule to check: `Cc1ccc(NC(=O)c2cccc(C(C)(C)C#N)c2)cc1Nc1ccc2ncn(C)c(=O)c2c1`
**Result** 98

**Query** Here is the next molecule: `C=CC(=O)Nc1cc(NC(=O)c2ccc(C)c(NC(=O)c3ccno3)c2)cc(C(F)(F)F)c1`
**Result** 100

**Query** Repeat with `CCOc1cc2ncc(C#N)c(Nc3ccc(OCc4ccccn4)c(Cl)c3)c2cc1NC(=O)/C=C/CN(C)C`
**Result** 100

**Query** // query: `O=C(NC1CC1)c1cccc(-c2ccc3c(NC(=O)C4CC4)n[nH]c3c2)c1`
**Result** 100

**Query** Request: `CCC(=O)N1CCN(c2ccc(-n3c(=O)ccc4cnc5ccc(-c6cnc7ccccc7c6)cc5c43)cc2C(F)(F)F)CC1`
**Result** 91
